Test system: U2OS
ASSAY_INFO: Here: values are normalized to the negative (DMSO; defined as 0% autophagy induction) and positive (250nM Torin1; mTOR inhibitor; defined as maximal inducer of autophagy = 100%) control compounds and represented as % of autophagy induction. […] The impact of autophagy induction on cells is complex and depends on the affected target. As such, the magnitude of a phenotype may not be equally mirrored in the %-value of autophagy induction and vice versa. The dynamics of the induction may indicate the mode of activation: e.g. activation via phosphorylation or a signaling cascade may occur fast, while activation via transcription factors may take considerably longer. […] Of note, treatment concentrations may be sub-optimal for specific compounds, leading to false negative annotations.
Type: functional, Homo sapiens
MEASUREMENT_CONTEXT: Compound Concentration 10 uM, Timepoint 36 hours, Culturing Media DMEM, 1 % Penicillin/Streptomycin, 10% Fetal bovin serum Add-On: No, Screening Media Control DMEM, Screening Media Samples DMEM
Measured autophagy induction, listed per entry.
Your answer should be a plain number; it is taken to be in %.

Examples with their reported autophagy induction follow.
{"COMPOUND": "CC(C)NCC(O)c1ccc(N)c(C#N)c1 (centres undefined)", "UNIT_NAME": "%", "autophagy induction": -7.491}
{"COMPOUND": "N#Cc1c(N)nc(SCC(N)=O)c(C#N)c1-c1ccc(OCC2CC2)cc1", "UNIT_NAME": "%", "autophagy induction": 26.7564}
{"COMPOUND": "CCCCC#Cc1nc(NC)c2ncn([C@@H]3O[C@H](CO)[C@@H](O)[C@H]3O)c2n1", "UNIT_NAME": "%", "autophagy induction": -5.149}
{"COMPOUND": "O=C(O)C1CN(Cc2ccc(-c3nc4cc(Cc5ccccc5F)ccc4s3)c(F)c2)C1", "UNIT_NAME": "%", "autophagy induction": 13.3531}

Requested field: autophagy induction. Item: O=C(O)COc1cccc(CN(Cc2ccc(-n3cccn3)cc2)S(=O)(=O)c2cccnc2)c1 -8.443

Requested field: autophagy induction. Item: CC(C)NC(=O)c1ccc(C#Cc2ccncc2)cn1 -0.1897

Requested field: autophagy induction. Item: Cc1csc2c(N[C@@H](C)CN3CCN(S(=O)(=O)c4ccc(Cl)c(Cl)c4)CC3)ncnc12 26.9308

Requested field: autophagy induction. Item: COc1cc(-n2cnc3cc(-c4ccc(Cl)cc4)sc3c2=O)ccc1OCCN1CCCC1 18.9257

Requested field: autophagy induction. Item: CN1CCCC(n2nc(Cc3ccc(Cl)cc3)c3ccccc3c2=O)CC1.Cl (centres undefined) [AZELASTINE HYDROCHLORIDE] 9.578
